meta.source: ChEMBL document CHEMBL1139671

Task for the reader: assign each of the following compounds its reported inhibition at 0.1 µM.
- Test system: HT-1080
- assay_remarks: Cytotoxicity against HT1080 cells at 0.1 uM after 72 hrs
- Type: functional
- run_conditions: Homo sapiens, HT-1080, 72 h
Numbers only, in %.

compound	subject_of_test	inhibition at 0.1 µM, %
C[C@@H]1CC[C@@H](c2ccoc2)N2C[C@@]3(CC[C@@H]12)C[C@]1(CC[C@H]2[C@H](C)CC[C@@H](c4ccoc4)N2[C@@H]1O)CS3 [6'-HYDROXYTHIONUPHLUTINE B]	HT-1080	-9.8
C[C@H]1CC[C@H]2[C@H](C)CC[C@@H](c3ccoc3)[N+]2([O-])C1 (some centres undefined)	HT-1080	-3.3
CC[C@@]1(O)C(=O)OCc2c1cc1n(c2=O)Cc2cc3ccccc3nc2-1	HT-1080	5.4

Switching to the query record.
Ask: Note inhibition at 0.1 µM for the compound shown: C[C@@H]1CC[C@@H](c2ccoc2)N2C[C@@]3(CC[C@@H]12)CS[C@]1(CC[C@H]2[C@H](C)CC[C@@H](c4ccoc4)N2C1)C3
Reply: -10.8
